- test-system: T1, MADYLT
- T1 chain: MADYLT
readout-label: Specific activity (unit/mg)
Record the value in unit/mg, omitting the unit from your answer.

// query Find the recorded Specific activity (unit/mg) belonging to MetAP-YMQ (wild type E. coli methionine aminopeptidase) (protein) AISIKTPEDIEKMRVAGRLAAEVLEMIEPYVKPGVSTGELDRICNDYIVNEQHAVSACLGYHGYPKSVCISINEVVCHGIPDDAKLLKDGDIVNIDVTVIKDGFHGDTSKMFIVGKPTIMGERLCRITQESLYLALRMVKPGINLREIGAAIQKFVEAEGFSVVREYCGHGIGRGFHEEPQVLHYDSRETNVVLKPGMTFTIEPMVNAGKKEIRTMKDGWTVKTKDRSLSAQYEHTIVVTDNGCEILTLRKDDTIPAIISHDE and report it.
// result 138
